Data provenance: paper PMC11999280

test system: mCherry-GAL9 expressing 16HBE cells; assay: GAL9 recruitment assay, 16HBE; format: cell-based; settings: EEE 1.25 µM, calculated mean from >3 independent exp.
Lab note: cut-off is 0.04. Strictly less in Gal9 response compared to reference is 1 (yes). Exactly 0.04 or more is 0 (no).

Reference set, count: 5
COc1nn(C2CCN(C(C)C)CC2)cc1Nc1ncc(F)c(-n2ccc3c(C#N)cccc32)n1 [EEE9] = 0 (no)
COc1nn(C2CCNCC2)cc1Nc1ncc(C(F)(F)F)c(-c2c[nH]c3ccccc23)n1 [EEE24] = 1 (yes)
COc1nn(C2CCNCC2)cc1Nc1ncc(F)c(-n2ccc3c(C#N)cccc32)n1 [EEE4] = 0 (no)
COc1nn(C2CCNCC2)cc1Nc1ncc(F)c(-c2c[nH]c3ccccc23)n1 [EEE23] = 1 (yes)
COc1nn(C2CCN(C)CC2)cc1Nc1ncc(C(F)(F)F)c(-n2ccc3c(C#N)cccc32)n1 [EEE16] = 1 (yes)

Q: Record COc1nn(C2CCN(C)CC2)cc1Nc1ncc(F)c(-n2ccc3ccc(C#N)cc32)n1 [EEE14] : is its Gal9 response compared to reference strictly below 0.04?
Result: 1 (yes)

Q: Record CCOc1nn(C2CCN(C)CC2)cc1Nc1ncc(F)c(-n2ccc3c(C#N)cccc32)n1 [EEE13] : is its Gal9 response compared to reference strictly below 0.04?
Result: 1 (yes)

Q: Record CCN1CCC(n2cc(Nc3ncc(F)c(-n4ccc5c(C#N)cccc54)n3)c(OC)n2)CC1 [EEE11] : is its Gal9 response compared to reference strictly below 0.04?
Result: 0 (no)

---

// values below are reported Gal9 response compared to reference
test system: mCherry-GAL9 expressing HepG2 cells; assay: GAL9 recruitment assay, HepG2; format: cell-based; conditions: EEE 0.31 µM, calculated mean from >3 independent exp.
// return just the number, without any unit appended

Some entries whose results are on file:
CCOc1nn(C2CCN(C)CC2)cc1Nc1ncc(C(F)(F)F)c(-c2c[nH]c3ccccc23)n1 [EEE15] = 0.008
COc1nn(C2CCNCC2)cc1Nc1ncc(C(F)(F)F)c(-c2c[nH]c3ccccc23)n1 [EEE24] = 0.010
COc1nn(C2CCN(C)CC2)cc1Nc1ncc(F)c(-n2ccc3ccc(C#N)cc32)n1 [EEE14] = 0.008

Q: Entry CCOc1nn(C2CCN(C)CC2)cc1Nc1ncc(F)c(-n2ccc3c(C#N)cccc32)n1 [EEE13] needs its Gal9 response compared to reference filled in; supply it.
Result: 0.008

Q: Entry COc1nn(C2CCNCC2)cc1Nc1ncc(F)c(-n2ccc3c(C#N)cccc32)n1 [EEE4] needs its Gal9 response compared to reference filled in; supply it.
Result: 0.010

Q: Entry COc1nn(C2CCN(C)CC2)cc1Nc1ncc(F)c(-n2ccc3c(C#N)cccc32)n1 [EEE8] needs its Gal9 response compared to reference filled in; supply it.
Result: 0.007

Q: Entry CCCN1CCC(n2cc(Nc3ncc(F)c(-n4ccc5c(C#N)cccc54)n3)c(OC)n2)CC1 [EEE10] needs its Gal9 response compared to reference filled in; supply it.
Result: 0.008

Q: Entry COc1nn(C2CCN(C)CC2)cc1Nc1ncc(Cl)c(-n2ccc3c(C#N)cccc32)n1 [EEE17] needs its Gal9 response compared to reference filled in; supply it.
Result: 0.009
